test system: 435261-313-R-J1-PDC complex spheroid viability; assay: Anticancer human tumor 435261-313-R-J1-PDC patient-derived colon adenocarcinoma cell line growth inhibition [GQUAD]; details: curve of first compound; second compound 1 µM;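 further: spheroids exposed to the agents for seven days before readout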
RECORDED_METRIC: IC50

COMPOUND | IC50
COc1cccc2c1C(=O)c1c(O)c3c(c(O)c1C2=O)CC(O)(C(=O)CO)CC3OC1CC(N)C(O)C(C)O1 (stereo not drawn) + Cc1cnc(CNC(=O)c2c(=O)c3ccc(N4CCCN(C)CC4)nc3n3c2sc2ccccc23)cn1 | < 31.6 nM
C=CC(=O)N1CCN(c2nc(=O)n(-c3c(C)ccnc3C(C)C)c3nc(-c4c(O)cccc4F)c(F)cc23)C(C)C1 (stereo not drawn) + Cc1[nH]c2ccc(F)cc2c1-c1nc2c3cccnc3c3ncccc3c2[nH]1 | > 10000 nM

Now look at this entry.
In: What IC50 appears in the records for this compound with 435261-313-R-J1-PDC complex spheroid viability? C=CCn1c(=O)c2cnc(Nc3ccc(N4CCN(C)CC4)cc3)nc2n1-c1cccc(C(C)(C)O)n1 + Cc1cnc(CNC(=O)c2c(=O)c3ccc(N4CCCN(C)CC4)nc3n3c2sc2ccccc23)cn1
Out: < 31.6 nM
